- methodDescription: Antioxidant activity assessed as inhibition of superoxide anion generation measured for 3 mins by nitro blue tetrazolium assay
- Type: physicochemical
propertyName: IC50 (µM)

# compoundSmiles, propertyName, readoutNumber
records = [
    ("COc1ccc(-c2nnc(/N=C3\\NC(=O)CS3)o2)cc1", "IC50", 0.29),
]

A: COc1ccc(/C=C2\SC(Nc3nnc(SCC(=O)Nc4ccc(Cl)cc4)s3)=NC2=O)cc1
B: C=CCN1C(=O)/C(=C2/C(=O)Nc3ccccc32)S/C1=N\c1nccs1
C: CC(=C/c1ccccc1)/C=C1\SC(N(C)c2ccc(O)cc2)=NC1=O
Arrange these compounds by their IC50, starting with the largest number. # list labels per requested ordering
C, B, A
(C: 3.4 µM, B: 1.32 µM, A: 0.81 µM)

====

Entries annotated with measured growth at 100 µM
- methodDescription: Cytotoxicity against human SF268 cells assessed as cell growth at 10^-4 M after 48 hrs by sulforhodamine B assay relative to control
- Assay type: functional
- testConditions: SF-268, 48 h, read-out: Activity
Write the value in % as a bare number.

Answered cases to consult:
# compound, propertyName, valueUnit, readoutNumber
rows = [
    ("O=C(CC1SC(Nc2ccc(O)cc2)=NC1=O)c1ccc(F)cc1 (racemic)", "growth at 100 µM", "%", 53),
    ("NS(=O)(=O)c1ccc(NC2=NC(=O)C(CC(=O)Nc3ccc(Br)cc3)S2)cc1 (racemic)", "growth at 100 µM", "%", 45),
    ("Cc1ccc2c(c1)/C(=C1/SC(N(C)c3ccc(O)cc3)=NC1=O)C(=O)N2", "growth at 100 µM", "%", 74),
    ("O=C1N=C(Nc2ccc(O)cc2)S/C1=C\\C=C/c1ccccc1", "growth at 100 µM", "%", 103),
    ("O=C1N=C(Nc2ccc(O)cc2)S/C1=C1\\C(=O)Nc2ccccc21", "growth at 100 µM", "%", 118),
]

Now, please, on to the next compound.
Tell me the measured growth at 100 µM of C=CCN1C(=O)/C(=C2/C(=O)Nc3ccccc32)S/C1=N\c1nccs1 , please.
82

====

- methodDescription: Antioxidant activity assessed as inhibition of superoxide anion generation measured for 3 mins by nitro blue tetrazolium assay
- Assay type: physicochemical
- testConditions: 0.05 h
propertyName: Emax (%)

# compound, valueUnit, readoutNumber
records = [
    ("O=C1N=C(Nc2nccs2)S/C1=C1\\C(=O)Nc2ccc(Br)cc21", "%", 67.4),
]

a: CC(=C/c1ccccc1)/C=C1\SC(N(C)c2ccc(O)cc2)=NC1=O
b: CC1S/C(=N/N=C/c2cccnc2)NC1=O (racemic)
c: COc1ccc(-c2nnc(/N=C3\NC(=O)CS3)o2)cc1
Arrange these compounds by their Emax, starting with the largest number. # list labels per requested ordering
c, a, b
(c: 81.8%, a: 55%, b: 35.8%)
